Where a name gives a salt, the structure may show the parent alone.
Task for the reader: assign each of the following compounds its reported melting point.

Look up melting point: NCCCCCCNc1nc(-c2ccncc2)cc(=O)n1Cc1ccccc1 (as salt: hydrochloride)
292 to 298 °C

Suppose we examine the compound NCCCCNc1nc(-c2ccncc2)cc(=O)n1Cc1ccccc1 (as salt: hydrochloride) [Compound 90] ; what melting point value has been reported?
163 to 168 °C (dec.)

Give the measured melting point of Cn1c(NCc2cccc(CN)c2)nc(-c2ccncc2)cc1=O (as salt: hydrochloride) .
193 to 197 °C

Which melting point is reported for this compound? NCCCCn1c(NCCCc2ccccc2)nc(-c2ccncc2)cc1=O (as salt: hydrochloride) [Compound 80]
124 to 127 °C

# query: melting point of entry Cn1c(NCC=Cc2ccccc2)nc(-c2ccncc2)cc1=O (as salt: hydrochloride) [Compound 95]
198 to 200 °C

Data request, read-out melting point, for CC(C)CCNc1nc(-c2ccncc2)cc(=O)n1C [Compound 55]
213 to 217 °C

Entry Cn1c(NCCc2ccc(-c3ccccc3)cc2)nc(-c2ccncc2)cc1=O [Compound 22] has what melting point?
175.4 to 175.6 °C

Report melting point for COc1ccc(CCNc2nc(-c3ccncc3)cc(=O)n2C)cc1OC [Compound 12] please.
187 to 187.1 °C

Could you share which melting point value was measured for Cn1c(NCC2CCCCC2)nc(-c2ccncc2)cc1=O [Compound 56] ?
218 to 220 °C

Fill in: melting point of CNCc1ccc(CCN(C)c2nc(-c3ccncc3)cc(=O)n2C)cc1 (as salt: hydrochloride) [Compound 75] is ___
157 to 160 °C

Sample CN(C)CCCOc1cccc(CNc2nc(-c3ccncc3)cc(=O)n2C)c1 [Compound 74] — what was its melting point?
80 to 82 °C

Consider the compound Cn1c(NCCCC2CCCCC2)nc(-c2ccncc2)cc1=O [Compound 58] and give its measured melting point.
177 to 180 °C

# melting point lookup, item Cc1ccc(CCNc2nc(-c3ccncc3)cc(=O)n2C)cc1 [Compound 16]
184.7 to 185 °C

Recorded melting point of Cn1c(NCCc2ccccn2)nc(-c2ccncc2)cc1=O [Compound 97] , please.
154 to 156 °C (dec.)

Any idea what its melting point is? The compound is Cn1c(NCCc2cccc(Cl)c2)nc(-c2ccncc2)cc1=O [Compound 18]
162.8 to 163 °C

Fill in the blank: the reported melting point of CCNc1nc(-c2ccncc2)cc(=O)n1C (as salt: oxalate) [Compound 36] is ____.
239 to 241 °C

Give the measured melting point of Cn1c(NCCC2CCCC2)nc(-c2ccncc2)cc1=O [Compound 66] .
190 to 194 °C

# get_value(readout='melting point', item= Cc1cccc2c(CCNc3nc(-c4ccncc4)cc(=O)n3C)c[nH]c12 [Compound 32] )
217.2 to 217.3 °C

====

For each entry below, report its melting point value.
Counter-ions that a name gives are not always drawn.

Requested read-out: melting point. Entry: Cn1c(NCCc2c[nH]c3ccc(OCc4ccccc4)cc23)nc(-c2ccncc2)cc1=O
168.4 to 168.6 °C

For the molecule NCCCCCCNc1nc(-c2ccncc2)cc(=O)n1CCCc1ccccc1 (as salt: hydrochloride) , what melting point is on record?
142 to 143 °C

Can you look up the measured melting point of NCCCCNc1nc(-c2ccncc2)cc(=O)n1CCCc1ccccc1 (as salt: hydrochloride) for me?
134 to 136 °C

Please give the measured melting point for this molecule: Cn1c(NCCc2ccc(O)cc2)nc(-c2ccncc2)cc1=O
257.4 to 257.9 °C

Name the reported melting point value associated with the molecule NCCCCn1c(NCCc2ccccc2)nc(-c2ccncc2)cc1=O (as salt: hydrochloride)
170 to 175 °C

Query (molecule): Cn1c(NCCc2ccc(Cl)cc2)nc(-c2ccncc2)cc1=O ; field requested: melting point
165.3 to 165.5 °C

Any idea what melting point was measured for NCCn1c(NCCCc2ccccc2)nc(-c2ccncc2)cc1=O (as salt: hydrochloride) ?
145 to 148 °C

Request the reported melting point associated with Cn1c(NCCCCCN)nc(-c2ccncc2)cc1=O (as salt: hydrochloride)
259 to 262 °C

====

What melting point was measured for each of the following?
Structures can show the parent of a compound that is named as a salt.

// lookup melting point for NCCCCNc1nc(-c2ccncc2)cc(=O)n1CCc1ccccc1 (as salt: hydrochloride) [Compound 45]
246 to 248 °C

Please give the measured melting point for this compound: Cn1c(NCCc2ccc(F)cc2)nc(-c2ccncc2)cc1=O [Compound 7]
178.8 to 178.9 °C

Given the compound Cn1c(NCCc2ccccc2Cl)nc(-c2ccncc2)cc1=O [Compound 9] , what is its reported melting point?
175.2 to 175.4 °C

If you can, please state the reported melting point value of O=c1cc(-c2ccncc2)nc(NCCCc2ccccc2)n1CCO [Compound 86] .
143 to 145 °C

# input compound: Cn1c(N(CCCN)CCCc2ccccc2)nc(-c2ccncc2)cc1=O (as salt: hydrochloride) [Compound 77] ; wanted: its melting point
185 to 189 °C

====

Counter-ions that a name gives are not always drawn.
experimental endpoint: melting point

Can you look up the measured melting point of COc1ccccc1CCNc1nc(-c2ccncc2)cc(=O)n1C [Compound 4] for me?
149.2 to 149.5 °C

Query: melting point; subject: Cn1c(NCc2cccc(OCCC3CCNCC3)c2)nc(-c2ccncc2)cc1=O (as salt: hydrochloride) [Compound 72]
225 to 232 °C

Which value of melting point has been reported for NCCCCCCNc1nc(-c2ccncc2)cc(=O)n1CCc1ccccc1 (as salt: hydrochloride) in the records?
225 to 228 °C

Using the record for Cn1c(NCCc2ccc(OCc3ccccc3)cc2)nc(-c2ccncc2)cc1=O [Compound 21] , report its melting point.
169.7 to 169.8 °C

Give the measured melting point of CCCCCCNc1nc(-c2ccncc2)cc(=O)n1C [Compound 49] .
133 to 135 °C

Requested read-out: melting point. Entry: Cn1c(NCCCc2ccccc2)nc(-c2ccncc2)cc1=O (as salt: hydrochloride) [Compound 96]
187 to 189 °C

Which value of melting point has been reported for NCCCCCNc1nc(-c2ccncc2)cc(=O)n1CCc1ccccc1 (as salt: hydrochloride) [Compound 43] in the records?
235 to 238 °C

So what's the measured melting point for this one? CCCCCCCCCCNc1nc(-c2ccncc2)cc(=O)n1C (as salt: hydrochloride) [Compound 53]
162 to 164 °C

Name the recorded melting point for COc1ccc2[nH]cc(CCNc3nc(-c4ccncc4)cc(=O)n3C)c2c1 [Compound 30] .
242.7 to 243 °C

May I ask what melting point has been recorded for Cn1c(NCCc2ccc(N)cc2)nc(-c2ccncc2)cc1=O [Compound 11] ?
197.3 to 197.5 °C

Quick one: melting point for COc1ccccc1CCNc1nc(-c2ccncc2)cc(=O)n1CCCN (as salt: hydrochloride) [Compound 85] ?
198 to 201 °C

Find the recorded melting point belonging to CN(C)CCn1c(NCCCc2ccccc2)nc(-c2ccncc2)cc1=O (as salt: hydrochloride) and report it.
212 to 215 °C

Tell me the measured melting point of O=c1cc(-c2ccncc2)nc(NCCCc2ccccc2)n1Cc1ccccc1 [Compound 28] , please.
218 to 221 °C

Return reported melting point; argument: Cn1c(NCCc2ccccc2F)nc(-c2ccncc2)cc1=O [Compound 5]
184 to 187.2 °C

// melting point lookup, key: CCCCCCCCCNc1nc(-c2ccncc2)cc(=O)n1C [Compound 52]
113 to 115 °C

Consider the compound CCCCNc1nc(-c2ccncc2)cc(=O)n1C [Compound 47] and give its measured melting point.
180 to 182 °C

Reported melting point, compound Cn1c(NCCc2c[nH]c3ccccc23)nc(-c2ccncc2)cc1=O (as salt: oxalate) [Compound 29] : ____
217 to 218 °C

What value of melting point has been recorded for this entry: CCCOCCCNc1nc(-c2ccncc2)cc(=O)n1C [Compound 64]
107 to 109 °C
